B1: TPR 5TU (parent)
chain: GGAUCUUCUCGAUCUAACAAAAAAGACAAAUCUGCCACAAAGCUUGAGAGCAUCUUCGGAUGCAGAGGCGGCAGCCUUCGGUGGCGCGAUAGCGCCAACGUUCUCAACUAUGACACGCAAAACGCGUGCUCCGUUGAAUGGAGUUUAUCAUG

- Variants of: B1
- Assay remarks: polymerase ribozyme fitness, log enrichment relative to wild type (log ratio); higher = more active; in vitro selection for triplet polymerase activity
Variants at the floor of the assay were thinned out.
Property: polymerase ribozyme fitness (log ratio)

Check out these entries, answers already filled in.
[
  {
    "Mutation": "A3U G58A C87G U101C A113U C131G",
    "Result": "≤ -4.2"
  },
  {
    "Mutation": "C10G A64C C76A G92C U135A A138G U151G",
    "Result": "≤ -4.2"
  },
  {
    "Mutation": "C51G G80A G84U G140C",
    "Result": "≤ -4.2"
  },
  {
    "Mutation": "G67U G81A C93G C105U",
    "Result": "≤ -4.2"
  },
  {
    "Mutation": "A20U C54A U56A G84C G86C C96U G117C A122U U144A A150G",
    "Result": "≤ -4.2"
  }
]

Items follow; give polymerase ribozyme fitness (log ratio) for each.
1. A21C A22U A89U G92C G94U G141A
2. C10A U15G G58A G86U A98G A138U
3. C51G G88A

≤ -4.2
≤ -4.2
≤ -4.2

Origin of values: the RNAGym collection of RNA variant scans (doi:10.1073/pnas.2313332121)
